# MEASUREMENT PROTOCOL: Pharmacokinetic assay: active peptide levels in rat plasma after IV injection
# TEST PARAMETERS: Wistar, rat, plasma, iv, 10 ug/kg
Where no end group is shown, it is not given here.

SUBSTANCE | UNIT NAME | AUC(0-t)
H-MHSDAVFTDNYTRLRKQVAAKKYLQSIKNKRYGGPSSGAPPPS [Agonist P104] | nM·h | 0.355
